Origin of values: patent US20190031754A1

Molecular target: hFc-hROR2-T245 (recombinant human ROR2 extracellular domain fused to human Fc) (human) (UniProt Q01974)
Sequence (Q01974 55-394 limits assumed, form in doubt): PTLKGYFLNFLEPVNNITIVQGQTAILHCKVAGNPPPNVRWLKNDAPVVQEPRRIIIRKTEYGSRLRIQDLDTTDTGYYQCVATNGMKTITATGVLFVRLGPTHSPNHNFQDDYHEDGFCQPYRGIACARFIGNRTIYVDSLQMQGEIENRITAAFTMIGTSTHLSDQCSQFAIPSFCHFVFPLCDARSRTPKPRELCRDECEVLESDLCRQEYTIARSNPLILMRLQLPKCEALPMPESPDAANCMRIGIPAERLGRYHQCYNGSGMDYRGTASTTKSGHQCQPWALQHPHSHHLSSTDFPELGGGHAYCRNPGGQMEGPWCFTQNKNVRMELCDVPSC
Test: SPR (Biacore X100), hFc-hROR2 captured by anti-human Fc on CM5, Fab as analyte, 1:1 Langmuir model
pKd: −log10 of the molar value.
Quick reference: pKd of the listed items.
Measured endpoint: pKd

>  <Binder>
chimeric rabbit/human Fab ERR2-302 (Fab, V domains shown) VH: QKQLVESGGGLVKPGGSLTLTCTVSGFSLSSYAIGWVRQAPGNGLEWIGIINSYGSTYYASWAKSRSTITRNTNLNTVTLKMTSLTAADTATYFCARSPYGYVSAWGYHRLDLWGQGTLVTISS VL: SYELTQLPSVSVSLGQTARITCGGASIGSKVVHWYQQKPGLAPGLLIYDDDERPSGVPDRFSGSNSGDTATLTISGAQAGDEAEYYCQLWDGSDVVFGGGTQLTVTG

>  <Quantitative readout>
7.28

$$$$
>  <Binder>
chimeric rabbit/human Fab XBR2-327 (Fab, V domains shown) VH: QEQLKESGGGLFKPTDTLTLTCTVSGFSLSSGAISWVRQAPGNGLEYIGFVNSLGNTYYANWAKSRSAITRNTNENTVTLKMTSLAAADTATYFCAKDYGNWAFDPWGPGTLVTVSS VL: DPVLTQTPSSVSAAVGGTVAINCQASQSISSYLSWYQQKPGQPPKLLIYGASKLASGVPSRFSGSGSGTEYTLTISGVQREDAATYYCLGGYASASYRTAFGGGTKLEIK

>  <Quantitative readout>
7.24

$$$$
>  <Binder>
chimeric rabbit/human Fab XBR2-433 (Fab, V domains shown) VH: QSVKESEGGLFKPTDTLTLTCTVSGFSLSTYGVSWVRQAPGNGLEWIGAIGSSGSANYASWAKDRSTITRNTNLNTVTLKMTSLTAADTATYFCARDGYYSSGWGPYFNIWGPGTLVTISS VL: SFVLTQPASVQVNLGQTVSLTCTADTLSRSYASWYQQKPGQAPVLLIYRDTSRPSGVPDRFSGSSSGNTATLTISGAQAGDEADYYCATSGGSGSNPQYVFGGGTQLTVTG

>  <Quantitative readout>
5.64

$$$$
>  <Binder>
chimeric rabbit/human Fab XBR2-TOP72 (Fab, V domains shown) VH: QEQLEESGGRLVTPGTPLTLTCTVSGIDLSSNAMSWVRQAPGKGLEYVGFINGGGGVHYASWARGRFTISKTSTTVDLKITSPTTEDTATYFCARAGTTYYTSFNLWGPGTLVTISS VL: QFVLTQSPSASAALGSSAKLTCTLSSAHKTYTIAWYQQQQGEAPRLLMMLRTDGSYTKGTGVPDRFSGSSSGADRYLIISSVQADDAAGYYCGADYSGGYVFGGGTQLTVTG

>  <Quantitative readout>
5.38

$$$$
